experiment: reduction of polyQ htt aggregates in cells – imaging, exon1htt(103Q)mCFP cells, high-content imaging, primary screen (AID 483); settings: exon1htt(103Q)mCFP cell line, aggregate imaging, at 2 µM; hits give high values;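 also: compound exposure lasted 3 days before fixation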
In this section, each of the molecules is paired with its reported inhibition of aggregation.
PROPERTY NAME: inhibition of aggregation (%)

>>> print(df.to_string())
                                    molecule  unit_info  observed_measurement
 0  COc1cccc(NC(=O)NC2(C(F)(F)F)Oc3ccccc3O2)c1          %                     0
 1  C=CCn1c(=O)c(C(=O)Nc2ccccc2C(=O)OCC)c(O)c2ccccc21          %                 -15.6
 2   Cn1c2ccc(F)cc2c2ncn(CCN3CCOCC3)c(=O)c21          %                  -7.4
 3  CCc1ccccc1N1CC23C=CC(O2)C(C(=O)O)C3C1=O (stereo not drawn)          %                  -8.2
 4  CCC(C(=O)N1CCc2cc(OC)c(OC)cc2C1)c1ccccc1 (stereo not drawn)          %                  -8.2
 5  CCOC(=O)c1[nH]c(CSc2nnc(-c3ccc(OC)cc3)o2)c(C(=O)OCC)c1C          %                 -12.6
 6     COc1ccc(CN(C(=O)c2cccs2)c2nccs2)cc1OC          %                  -1.2
 7  CC(=O)NS(=O)(=O)c1ccc(NC(=O)c2ccccc2F)cc1          %                  23.5
 8          Cc1cccc(-c2nnn(CC/C(N)=N/O)n2)c1          %                  -1.8
 9  COC(=O)c1ccc(C)c(NS(=O)(=O)c2ccc3c(c2)OCCO3)c1          %                  22.6
10  CCCn1c(SCC(=O)N2CCN(c3ccccc3)CC2)nc2ccccc2c1=O          %                  -6.7
11   CCOC(=O)CNC(=O)CSc1ncnc2c1cnn2Cc1ccccc1          %                 -12.1
12                 COc1ccc(Cl)c(NCCC(=O)O)c1          %                   2.2
13        COc1ccccc1OCCOc1ccccc1/C=N/n1cnnc1          %                 -14.3
14  CC1CN(c2nc3ccccc3nc2C(C#N)C(=O)NCc2ccc3c(c2)OCO3)CC(C)O1 (stereo not drawn)          %                  11.1
15  Cc1ccc(NC(=O)CSc2nnc(-c3cnccn3)n2Cc2ccco2)cc1C          %                   4.6
16   Cc1onc(-c2ccccc2Cl)c1C(=O)N1CCc2ccccc21          %                  -6.4
17  COc1ccc(CNC(=O)CN(C(=O)c2ccc(CN3CCOCC3)o2)C2CCCC2)cc1          %                  -0.5
18  O=S1(=O)CC(N2CCCCC2)C(N2CCCCC2)C1 (stereo not drawn)          %                   0.2
19            C=CCSc1n[nH]c(-c2ccc(OC)cc2)n1          %                  -8.3
20         CCOC(=O)/C(C#N)=C(/C)c1ccc(OC)cc1          %                 -28.9
21  O=C(NCC1CCCO1)C1CCN(S(=O)(=O)c2cccc3cccnc23)CC1 (stereo not drawn)          %                   6.8
22  COC(=O)CNc1nc(C2CC2)nc2c1nnn2Cc1ccccc1Cl          %                  -0.3

====

assay: reduction of polyQ htt aggregates in cells – imaging, exon1htt(103Q)mCFP cells, high-content imaging, primary screen (AID 483); conditions: exon1htt(103Q)mCFP cell line, aggregate imaging, at 2 µM; hits give high values;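 also: compound exposure lasted 3 days before fixation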
PROPERTY NAME: inhibition of aggregation (%)

>>> df
                             chemical_smiles              property_name  observed_measurement
 0  COc1cc(OC)c(-c2nn3c(C4CCCCC4)nnc3s2)cc1OC  inhibition of aggregation                   1.8
 1        O=c1c2[nH]c3ccccc3c2ncn1CCCn1ccnc1  inhibition of aggregation                  -4.9
 2         CC(C)CCNC(=O)C1CCN(C(=O)N(C)C)CC1  inhibition of aggregation                  13.3
 3      Cc1csc2ncc(C(=O)Nc3ccccc3Cl)c(=O)n12  inhibition of aggregation                   -20
 4  CC(C)n1nc(C(=O)Nc2nc3ccc(S(C)(=O)=O)cc3s2)c2ccccc2c1=O  inhibition of aggregation                  -5.5
 5      COc1ccc(NC(=O)c2cc(C3CC3)on2)c(OC)c1  inhibition of aggregation                  -2.2
 6      CCOc1ccc(NC(=O)CSc2nc3cccnc3n2CC)cc1  inhibition of aggregation                 -26.9
 7        O=C(O)c1cc(Cl)c(Cl)cc1C(=O)N1CCCC1  inhibition of aggregation                  14.8
 8  CCC(=O)Nc1c(C#N)c2nc3ccccc3nc2n1-c1ccccc1C  inhibition of aggregation                  11.4
 9  Cc1nn(C(=O)c2ccc3c(c2)OCO3)c(N)c1-c1ccccc1  inhibition of aggregation                  11.7
10   CN(C)CCCn1c(N)c(C#N)c2nc(C#N)c(C#N)nc21  inhibition of aggregation                     0
11  CCOC(=O)Nc1ccc(NS(=O)(=O)c2ccc(C)cc2)cc1  inhibition of aggregation                 -13.3

====

Listed below: inhibition values for each entry.
test: blockers of RIG-like receptor reporter activation – cell-based, Sendai virus stimulus, luciferase, 10K MLSCN set, TLR/RLR signaling modifier project, primary screen (AID 602276); details: HEK293 RL24 IRF3 luciferase reporter, at 10 µM, hits give high values;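 also: firefly luciferase from ISG56 promoter only with Renilla not read in this screen; 0% = Sendai virus plus DMSO and 100% = medium plus DMSO without virus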
PROPERTY NAME: inhibition (%)

>>> print(df.to_string())
                                    molecule  unit_info  observed_measurement
 0  O=C(NC1CCCCC1)C1CCCN1C(=O)NCc1ccccc1 (configuration not stated)          %                  5.02
 1  CCCC(=O)N1CC(=O)Nc2ccc(C)cc2C1c1ccc(F)cc1 (configuration not stated)          %                  3.95
 2  CC(C)CN(C(=O)COC(=O)Cc1n[nH]c(=O)c2ccccc12)C1CCS(=O)(=O)C1 (configuration not stated)          %                    12
 3             Cc1cccc(OCCCc2c(C)n[nH]c2C)c1          %                 -15.1
 4   CCOc1ccc(-c2nc(C#N)c(N3CCN(C)CC3)o2)cc1          %                  10.5
 5  CC1Cc2nc(SCC(=O)Nc3ccc(F)cc3F)n(C)c(=O)c2S1 (configuration not stated)          %                  15.3
 6  COC(=O)c1[nH]c2ccc(F)cc2c1NS(=O)(=O)c1ccc(OC)cc1OC          %                  16.7
 7      Cc1c(C)n(C)c2ccc(C(=O)NCc3cccs3)cc12          %                 -5.31
 8    O=C(CSc1ncnc2c1cnn2-c1ccccc1)Nc1ccccc1          %                  13.5
 9  CCN(c1cccc(C(F)(F)F)c1)S(=O)(=O)c1ccc2c(c1)CCN2C(=O)C1CC1          %                 -11.8
10  CCOC(=O)C1CCCn2c1nc1sc3c(c1c2=O)CCCC3 (configuration not stated)          %                 -24.3
11  Cc1c(NC(=O)CSc2nnc3sc4ccccc4n23)c(=O)n(-c2ccccc2)n1C          %                  19.4
12                   Cn1nnnc1SCc1cn2cccnc2n1          %                  9.85
13  O=C(NCCN1CCCCCC1)c1ccc(CS(=O)(=O)c2ccc(Br)cc2)o1          %                 -15.7
14         O=C(O)CN1C(=O)C2(OCCCO2)c2ccccc21          %                    17
15            Cc1nnc(SCc2cn3ccsc3n2)n(N)c1=O          %                  17.8
16  COC(=O)Cn1c(=O)c2c(nc(Br)n2CC(=O)OC)n(C)c1=O          %                  9.82
17  COC(=O)c1cn(NC(=O)C2CCCO2)c(=O)c2ccccc12 (configuration not stated)          %                  11.6
18  Cc1cccc(N2CCN(C(=O)CCn3c(=S)[nH]c4cc5c(cc4c3=O)OCO5)CC2C)c1 (configuration not stated)          %                  9.48
19  COc1cc(C(=O)Nc2cccc(-c3nc4cc(C)ccc4o3)c2)cc(OC)c1OC          %                 0.465
20  CN1C(=O)C(CC(=O)N2CCN(C(c3ccccc3)c3ccccc3)CC2)N(C)C1=O (configuration not stated)          %                   1.7
21  COc1cccc(NC(=O)CSc2nnc(-c3cc(-c4ccccn4)nc4ccccc34)o2)c1          %                  1.87
